# credit: patent US7718767B2

Examples of compounds with documented IC50 follow.
# Tested on: CEM-SS cells
# Assay Comment: Compound cytotoxicity in the HIV MTS assay (cells plus drug only)
# Assay type: cell-based, human
# Recorded Conditions: 50% inhibition of cell growth
# Method: In this MTS cytoprotection assay, each experiment included cell control wells (cells only), virus control wells (cells plus virus), drug toxicity wells (cells plus drug only), drug colorimetric control wells (drug only) as well as experimental wells (drug plus cells plus virus). […] HIV-1RF was added to each well in a volume of 50 μL, the amount of virus determined to give approximately 90% cell killing at 6 days post-infection. […]
Readout: IC50

Compound	Readout	Reported Result
C/C=C/C[C@@H](C)[C@@H](O)[C@H]1C(=O)N[C@@H](CC)C(=O)N(C)C(OCCOC)C(=O)N(C)[C@@H](CC(C)(C)O)C(=O)N[C@@H](C(C)C)C(=O)N(C)[C@@H](CC(C)C)C(=O)N[C@@H](C)C(=O)N[C@H](C)C(=O)N(C)[C@@H](CC(C)C)C(=O)N(C)[C@@H](CC(C)C)C(=O)N(C)[C@@H](C(C)C)C(=O)N1C (stereo partly drawn) [X]	IC50	> 20 µM
C/C=C/C[C@@H](C)[C@@H](O)[C@H]1C(=O)N[C@@H](CC)C(=O)N(C)[C@H](OCCCOC)C(=O)N(C)[C@@H](CC(C)(C)O)C(=O)N[C@@H](C(C)C)C(=O)N(C)[C@@H](CC(C)C)C(=O)N[C@@H](C)C(=O)N[C@H](C)C(=O)N(C)[C@@H](CC(C)C)C(=O)N(C)[C@@H](CC(C)C)C(=O)N(C)[C@@H](C(C)C)C(=O)N1C [Y]	IC50	> 20 µM
C/C=C/C[C@@H](C)[C@@H](O)[C@H]1C(=O)N[C@@H](CC)C(=O)N(C)[C@H](OC(C)C)C(=O)N(C)[C@@H](CC(C)C)C(=O)N[C@@H](C(C)C)C(=O)N(C)[C@@H](CC(C)C)C(=O)N[C@@H](C)C(=O)N[C@H](C)C(=O)N(C)[C@@H](CC(C)C)C(=O)N(C)[C@@H](CC(C)C)C(=O)N(C)[C@@H](C(C)C)C(=O)N1C [D, 3-(isopropoxy)cyclosporin]	IC50	> 20 µM
